# CONDITIONS USED: in isobutanol, 325.15 K
ASSAY ENDPOINT: solubility (mole fraction)

• C[C@@H]1CC[C@@]2(OC1)O[C@H]1C[C@H]3[C@@H]4CC=C5C[C@@H](O)CC[C@]5(C)[C@H]4CC[C@]3(C)[C@H]1[C@@H]2C = 0.00836

* * *

# CONDITIONS USED: in n-propanol, 292.95 K
ASSAY ENDPOINT: solubility (mole fraction)

- C[C@@H]1CC[C@@]2(OC1)O[C@H]1C[C@H]3[C@@H]4CC=C5C[C@@H](O)CC[C@]5(C)[C@H]4CC[C@]3(C)[C@H]1[C@@H]2C: 0.00205

* * *

# CONDITIONS USED: in isobutanol, 323.85 K
ASSAY ENDPOINT: solubility (mole fraction)

- C[C@@H]1CC[C@@]2(OC1)O[C@H]1C[C@H]3[C@@H]4CC=C5C[C@@H](O)CC[C@]5(C)[C@H]4CC[C@]3(C)[C@H]1[C@@H]2C: 0.00797

* * *

# CONDITIONS USED: in n-pentanol, 327.15 K
ASSAY ENDPOINT: solubility (mole fraction)

• C[C@@H]1CC[C@@]2(OC1)O[C@H]1C[C@H]3[C@@H]4CC=C5C[C@@H](O)CC[C@]5(C)[C@H]4CC[C@]3(C)[C@H]1[C@@H]2C = 0.0134

* * *

# CONDITIONS USED: in n-butanol, 326.45 K
ASSAY ENDPOINT: solubility (mole fraction)

* C[C@@H]1CC[C@@]2(OC1)O[C@H]1C[C@H]3[C@@H]4CC=C5C[C@@H](O)CC[C@]5(C)[C@H]4CC[C@]3(C)[C@H]1[C@@H]2C | 0.0114

* * *

# CONDITIONS USED: in n-pentanol, 329.15 K
ASSAY ENDPOINT: solubility (mole fraction)

* C[C@@H]1CC[C@@]2(OC1)O[C@H]1C[C@H]3[C@@H]4CC=C5C[C@@H](O)CC[C@]5(C)[C@H]4CC[C@]3(C)[C@H]1[C@@H]2C | 0.0139

* * *

# CONDITIONS USED: in tert-butanol, 310.65 K
ASSAY ENDPOINT: solubility (mole fraction)

- C[C@@H]1CC[C@@]2(OC1)O[C@H]1C[C@H]3[C@@H]4CC=C5C[C@@H](O)CC[C@]5(C)[C@H]4CC[C@]3(C)[C@H]1[C@@H]2C: 0.00175

* * *

# CONDITIONS USED: in ethanol, 327.65 K
ASSAY ENDPOINT: solubility (mole fraction)

• C[C@@H]1CC[C@@]2(OC1)O[C@H]1C[C@H]3[C@@H]4CC=C5C[C@@H](O)CC[C@]5(C)[C@H]4CC[C@]3(C)[C@H]1[C@@H]2C = 0.00324

* * *

# CONDITIONS USED: in isobutanol, 308.65 K
ASSAY ENDPOINT: solubility (mole fraction)

* C[C@@H]1CC[C@@]2(OC1)O[C@H]1C[C@H]3[C@@H]4CC=C5C[C@@H](O)CC[C@]5(C)[C@H]4CC[C@]3(C)[C@H]1[C@@H]2C | 0.00332

* * *

# CONDITIONS USED: in n-butanol, 325.45 K
ASSAY ENDPOINT: solubility (mole fraction)

- C[C@@H]1CC[C@@]2(OC1)O[C@H]1C[C@H]3[C@@H]4CC=C5C[C@@H](O)CC[C@]5(C)[C@H]4CC[C@]3(C)[C@H]1[C@@H]2C: 0.011
